Biological target: Estrogen receptor (Homo sapiens)
Assay: qHTS assay to identify small molecule antagonists of the estrogen receptor alpha (ER-alpha) signaling pathway using the BG1 cell line in the presence of 0.1 nM 17-beta-estradiol (AID 1259244); note: nearly all actives have a fitted effect of over 50% in size
Conditions: VM7Luc4E2 (BG1) ERE-luciferase, antagonist mode, 0.1 nM E2, 22 h; series mostly up to 92.4 µM
Results filed as inconclusive are left out. Calls of active or inactive are those of the source. Calls come from the whole dose curve; as a rule, active = well fitted inhibition curve with a large enough effect in the repeat runs; inconclusive = weak or mixed curves; inactive = no such curve, though single readings can be large or run the other way.
Possible outcomes: t = active, f = inactive

- compound: "CC(=O)/C(C)=C/C1C(C)=CCCC1(C)C (configuration not stated)"
  test_system: "Estrogen receptor (Homo sapiens)"
  class_name: "f"
- compound: "Nc1ccc(C(=O)N2CC3CC(CN(Cc4ccccc4)C3)C2)cc1"
  test_system: "Estrogen receptor (Homo sapiens)"
  class_name: "f"
- compound: "CC(C(=O)O)c1ccc(C(=O)c2ccccc2)s1 (configuration not stated)"
  test_system: "Estrogen receptor (Homo sapiens)"
  class_name: "f"
- compound: "CC(C)(C)c1ccc(S)cc1"
  test_system: "Estrogen receptor (Homo sapiens)"
  class_name: "f"
- compound: "O=C(Nc1ccccc1)OCC(CN1CCCCC1)OC(=O)Nc1ccccc1 (configuration not stated)"
  test_system: "Estrogen receptor (Homo sapiens)"
  class_name: "f"
- compound: "NCCCN(CCO)CCO"
  test_system: "Estrogen receptor (Homo sapiens)"
  class_name: "f"
- compound: "O=[N+]([O-])c1cc[n+]([O-])cc1"
  test_system: "Estrogen receptor (Homo sapiens)"
  class_name: "t"
- compound: "N#CCCNCCC#N"
  test_system: "Estrogen receptor (Homo sapiens)"
  class_name: "f"
- compound: "CN1CCC(OC(c2ccccc2)c2ccccc2)CC1"
  test_system: "Estrogen receptor (Homo sapiens)"
  class_name: "f"
- compound: "O=C(O)c1cn(C2CC2)c2cc(Cl)c(F)cc2c1=O"
  test_system: "Estrogen receptor (Homo sapiens)"
  class_name: "f"
- compound: "CC(=O)OCCc1ccccc1"
  test_system: "Estrogen receptor (Homo sapiens)"
  class_name: "f"
- compound: "CN(C)CCCNCCCN"
  test_system: "Estrogen receptor (Homo sapiens)"
  class_name: "f"
- compound: "Cc1ccc2c(ccc3ccccc32)c1"
  test_system: "Estrogen receptor (Homo sapiens)"
  class_name: "f"
- compound: "Nc1ccc(C(=O)Nc2ccccc2N)cc1"
  test_system: "Estrogen receptor (Homo sapiens)"
  class_name: "f"
- compound: "CN(C)CC[C@@H](c1ccc(Br)cc1)c1ccccn1"
  test_system: "Estrogen receptor (Homo sapiens)"
  class_name: "f"
- compound: "CC[C@@H]1C[C@H](N(Cc2cc(C(F)(F)F)cc(C(F)(F)F)c2)C(C)=O)c2cc(C(F)(F)F)ccc2N1C(=O)OC(C)C"
  test_system: "Estrogen receptor (Homo sapiens)"
  class_name: "f"
- compound: "FC(F)(F)C(F)(F)C(F)(F)C(F)(F)C(F)(F)C(F)(F)CCI"
  test_system: "Estrogen receptor (Homo sapiens)"
  class_name: "f"
- compound: "Oc1ccc(O)c2c(O)cccc12"
  test_system: "Estrogen receptor (Homo sapiens)"
  class_name: "f"
- compound: "CC[C@H](C)[C@H](N)C(=O)O"
  test_system: "Estrogen receptor (Homo sapiens)"
  class_name: "f"
- compound: "Cc1cccc(OCCOc2cccc(C)c2)c1"
  test_system: "Estrogen receptor (Homo sapiens)"
  class_name: "f"
- compound: "O=C(O)COC(=O)Cc1ccccc1Nc1c(Cl)cccc1Cl"
  test_system: "Estrogen receptor (Homo sapiens)"
  class_name: "f"
- compound: "CCCCOC(O)CC (configuration not stated)"
  test_system: "Estrogen receptor (Homo sapiens)"
  class_name: "f"
- compound: "CCCCCCCCCC(=O)OCC"
  test_system: "Estrogen receptor (Homo sapiens)"
  class_name: "f"
- compound: "CN(c1nccc(=O)[nH]1)C1CCN(c2nc3ccccc3n2Cc2ccc(F)cc2)CC1"
  test_system: "Estrogen receptor (Homo sapiens)"
  class_name: "f"
- compound: "O=C(NS(=O)(=O)/C=C/c1cccs1)c1ccc(F)cc1Br"
  test_system: "Estrogen receptor (Homo sapiens)"
  class_name: "f"
- compound: "COC(Cc1ccccc1)OC"
  test_system: "Estrogen receptor (Homo sapiens)"
  class_name: "f"
- compound: "CC(C)(Oc1ccc(Cl)cc1)C(=O)OCCCOC(=O)C(C)(C)Oc1ccc(Cl)cc1"
  test_system: "Estrogen receptor (Homo sapiens)"
  class_name: "f"
